target: various mutants of kinase EGFR (BaF3 cell lines stably transfected with kinase) (Homo sapiens, UniProt P00533, T790M/C797S, form not given); construct: other: BaF3 cells stably transfected with EGFR Δ19Del/T790M/C797S; MTS, 48; other: BaF3 cell line stably transfected with EGFR Δ19Del/T790M/C7; assay: Growth inhibitory activity of compounds on BaF3 cell lines stably transfected with kinase (MTS, 48 h); type: cell-based; conditions: BaF3 cell line stably transfected with EGFR Δ19Del/T790M/C797S, read-out: Δ19Del/T790M/ C797S growth inhibitory activity IC50
Sequence (P00533 with tags, fused parts or gaps DEL746-750/T790M/C797S, form open): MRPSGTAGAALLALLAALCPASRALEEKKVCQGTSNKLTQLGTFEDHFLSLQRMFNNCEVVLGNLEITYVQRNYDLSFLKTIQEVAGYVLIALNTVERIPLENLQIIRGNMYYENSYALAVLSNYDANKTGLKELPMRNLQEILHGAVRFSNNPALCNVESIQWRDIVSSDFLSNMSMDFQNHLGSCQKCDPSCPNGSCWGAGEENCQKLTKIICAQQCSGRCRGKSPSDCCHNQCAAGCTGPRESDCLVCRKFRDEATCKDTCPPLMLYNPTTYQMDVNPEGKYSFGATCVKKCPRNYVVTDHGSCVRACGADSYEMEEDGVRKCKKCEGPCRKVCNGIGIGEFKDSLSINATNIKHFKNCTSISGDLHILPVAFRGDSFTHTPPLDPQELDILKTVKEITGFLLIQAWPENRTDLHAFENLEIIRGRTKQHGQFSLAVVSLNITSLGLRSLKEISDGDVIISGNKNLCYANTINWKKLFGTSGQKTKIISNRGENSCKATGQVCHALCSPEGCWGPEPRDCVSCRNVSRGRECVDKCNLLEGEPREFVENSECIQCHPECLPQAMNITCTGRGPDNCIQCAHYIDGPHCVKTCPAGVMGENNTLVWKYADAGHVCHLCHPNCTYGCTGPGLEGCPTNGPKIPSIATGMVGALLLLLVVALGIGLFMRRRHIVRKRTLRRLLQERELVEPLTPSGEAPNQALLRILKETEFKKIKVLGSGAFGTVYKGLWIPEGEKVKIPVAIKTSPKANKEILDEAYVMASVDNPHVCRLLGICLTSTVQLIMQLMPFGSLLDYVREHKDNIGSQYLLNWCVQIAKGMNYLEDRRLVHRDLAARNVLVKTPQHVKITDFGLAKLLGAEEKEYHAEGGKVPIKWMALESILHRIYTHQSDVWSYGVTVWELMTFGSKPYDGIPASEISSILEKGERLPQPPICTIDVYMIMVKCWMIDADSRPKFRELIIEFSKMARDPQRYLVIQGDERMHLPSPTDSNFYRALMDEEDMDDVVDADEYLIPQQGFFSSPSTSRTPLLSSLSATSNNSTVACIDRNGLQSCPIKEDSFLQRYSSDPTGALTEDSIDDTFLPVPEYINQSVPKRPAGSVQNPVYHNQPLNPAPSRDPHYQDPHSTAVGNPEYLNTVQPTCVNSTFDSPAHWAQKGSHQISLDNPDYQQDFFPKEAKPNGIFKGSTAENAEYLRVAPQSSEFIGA
IC50 listing for selected molecules.

These solved cases illustrate the format of a correct answer.
- COc1cc(N2CCN(C)CC2)c(C)cc1Nc1ncc(Br)c(Nc2ccc3nccnc3c2N(C2CC2)S(C)(=O)=O)n1 [Compound I-309]: ≤ 50 nM
- COc1cc(N2CCC(N3CCN(C)CC3)CC2)c(Cc2ccccc2)cc1Nc1nc(Nc2ccc3nccnc3c2N(C)S(C)(=O)=O)c2sccc2n1 [II-1-11]: 500 to 2500 nM
- COc1cc(N2CCC(N3CCN(C)CC3)CC2)c(C2CC2)cc1Nc1ncc(Br)c(Nc2ccc3nccnc3c2NS(C)(=O)=O)n1 [Compound I-407]: ≤ 50 nM

State the recorded IC50 for this entry: COc1ccc(N2CCC(O)CC2)cc1Nc1ncc(C2CC2)c(Nc2ccc3nccnc3c2N(C)S(C)(=O)=O)n1 [Compound I-365] ≤ 50 nM

Same lookup for CCOc1cnc(Nc2cc(C)c(N3CCC(N4CCN(C)CC4)CC3)cc2OC)nc1Nc1ccc2nccnc2c1N(C)S(C)(=O)=O [Compound I-336] , please. 500 to 2500 nM

Please do the same for CCc1cc(Nc2ncc(OC)c(Nc3ccc4nccnc4c3N(C)S(C)(=O)=O)n2)c(OC)nc1N1CCC(N2CCN(C)CC2)CC1 [Compound I-334] as well. ≤ 50 nM

Follow-up entry: COc1cc(N2CCC(N(C)C)C2)c(C)cc1Nc1nc(Nc2ccc3nccnc3c2N(C)S(C)(=O)=O)c2[nH]ccc2n1 (centres unmarked) [II-1-35] 500 to 2500 nM

Now the same for CCc1cc(Nc2nc(Nc3ccc4nccnc4c3N(C)S(C)(=O)=O)c3sccc3n2)c(OC)cc1N1CCC(N(C)C)CC1 [II-1-16] ≤ 50 nM

Try this molecule too: CCc1cc(Nc2ncc(Br)c(Nc3ccc4nccnc4c3NS(C)(=O)=O)n2)c(OC(F)(F)F)cc1N1CCC(N2CCN(C)CC2)CC1 [Compound I-405] 50 to 500 nM

Query COc1cc(N2CCC(N(C)C)CC2)c(C)cc1Nc1nc(Nc2ccc3nccnc3c2N(C)S(C)(=O)=O)c2sccc2n1 [II-1-13] next ≤ 50 nM

Then this molecule: CCc1cc(Nc2ncc(Br)c(Nc3ccc4nccnc4c3N(C)S(C)(=O)=O)n2)c(OC)cc1N1CCN(C2CN(C)C2)CC1 [Compound I-398] ≤ 50 nM

CCc1cc(Nc2ncc(Br)c(Nc3ccc4nccnc4c3NS(C)(=O)=O)n2)c(OC)cc1N1CCC(N2CCN(C)CC2)CC1 [Compound I-403] , same question. ≤ 50 nM

How about this molecule: CCc1cnc(Nc2cc(N3CCC(O)CC3)ccc2OC)nc1Nc1ccc2nccnc2c1N(C)S(C)(=O)=O [Compound I-363] ≤ 50 nM

And COc1cc(N2CCC(N3CCN(C)CC3)CC2)ccc1Nc1nc(Nc2ccc3nccnc3c2N(C)S(C)(=O)=O)c2sccc2n1 [II-1-1] ? 50 to 500 nM

Next: CCc1cc(Nc2ncc(Br)c(Nc3ccc4nccnc4c3N(C3CC3)S(C)(=O)=O)n2)c(OC)cc1N1CCN(C)CC1 [Compound I-310] ≤ 50 nM

Same again, this time with COc1cc(N2CCC(N3CCN(C)CC3)CC2)c(C)cc1Nc1nc(Nc2ccc3nccnc3c2N(C)S(C)(=O)=O)c2[nH]ccc2n1 [II-1-19] 500 to 2500 nM

* * *

Items are presented alongside their recorded IC50.
biological target: various mutants of kinase EGFR (BaF3 cell lines stably transfected with kinase) (Homo sapiens, UniProt P00533, L858R/T790M); construct: expressed in transfected cells; host or cells: BaF3; assay: Growth inhibitory activity of compounds on BaF3 cell lines stably transfected with kinase (MTS, 48 h); type: cell-based; details: BaF3 cells stably transfected with EGFR L858R/T790M, read-out: IC50, growth inhibition, L858R/T790M
Sequence (P00533 25-1210 T790M/L858R): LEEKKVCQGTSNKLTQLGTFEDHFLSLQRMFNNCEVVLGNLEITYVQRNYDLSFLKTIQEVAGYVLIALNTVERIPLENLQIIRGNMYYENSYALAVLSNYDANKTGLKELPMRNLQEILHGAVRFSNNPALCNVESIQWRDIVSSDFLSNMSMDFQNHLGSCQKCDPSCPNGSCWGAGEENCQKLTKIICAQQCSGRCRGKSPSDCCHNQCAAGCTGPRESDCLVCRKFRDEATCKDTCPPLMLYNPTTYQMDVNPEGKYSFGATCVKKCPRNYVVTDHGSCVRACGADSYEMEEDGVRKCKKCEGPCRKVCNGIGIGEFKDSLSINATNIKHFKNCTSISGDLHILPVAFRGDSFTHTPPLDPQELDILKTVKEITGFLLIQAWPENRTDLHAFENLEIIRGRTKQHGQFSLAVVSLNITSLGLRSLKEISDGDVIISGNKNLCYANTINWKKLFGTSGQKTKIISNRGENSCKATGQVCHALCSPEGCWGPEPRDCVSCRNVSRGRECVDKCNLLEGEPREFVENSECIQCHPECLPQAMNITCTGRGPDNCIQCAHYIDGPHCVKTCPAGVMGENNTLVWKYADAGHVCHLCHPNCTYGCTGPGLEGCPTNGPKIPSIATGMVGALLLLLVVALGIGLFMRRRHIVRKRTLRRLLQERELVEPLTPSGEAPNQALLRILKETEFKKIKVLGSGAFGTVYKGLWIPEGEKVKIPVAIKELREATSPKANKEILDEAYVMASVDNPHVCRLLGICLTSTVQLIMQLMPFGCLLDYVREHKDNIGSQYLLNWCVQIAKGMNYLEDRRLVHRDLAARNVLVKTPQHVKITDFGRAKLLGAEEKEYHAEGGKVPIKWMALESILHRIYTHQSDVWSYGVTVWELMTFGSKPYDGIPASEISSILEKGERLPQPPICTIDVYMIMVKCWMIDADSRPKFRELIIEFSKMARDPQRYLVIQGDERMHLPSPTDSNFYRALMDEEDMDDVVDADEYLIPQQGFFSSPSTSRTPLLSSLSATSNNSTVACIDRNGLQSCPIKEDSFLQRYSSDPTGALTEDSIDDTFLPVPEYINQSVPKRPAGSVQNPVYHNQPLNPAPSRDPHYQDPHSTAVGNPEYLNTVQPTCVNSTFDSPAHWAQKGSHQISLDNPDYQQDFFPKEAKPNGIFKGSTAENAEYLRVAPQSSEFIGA

- COc1cc(N2CCC(N(C)C)C2)c(C)cc1Nc1ncc(C(F)(F)F)c(Nc2ccc3nccnc3c2N(C)S(C)(=O)=O)n1 (stereo not drawn): ≤ 50 nM
- CCc1cc(Nc2ncc(Cl)c(Nc3ccc4nccnc4c3N(C3CC3)S(C)(=O)=O)n2)c(OC)nc1N1CCC(N2CCN(C)CC2)CC1: ≤ 50 nM
- CCc1cc(Nc2ncc(Br)c(Nc3ccc4nccnc4c3N(C)S(=O)(=O)CC)n2)c(OC(F)(F)F)cc1N1CCC(N2CCN(C)CC2)CC1: 50 to 500 nM
- CCc1cc(Nc2ncc(Br)c(Nc3ccc4nccnc4c3N(C)S(=O)(=O)C(C)C)n2)c(OC)cc1N1CCC(N(C)C)CC1: ≤ 50 nM
- CCc1cc(Nc2ncc(Br)c(Nc3ccc4nccnc4c3N(CC)S(C)(=O)=O)n2)c(OC(F)(F)F)cc1N1CCC(N2CCN(C)CC2)CC1: 50 to 500 nM

I am curious: what IC50 value has been reported for "COc1cc(N2CCC(N3CCN(C)CC3)CC2)c(CC2CC2)cc1Nc1ncc(Cl)c(Nc2ccc3nccnc3c2N(C)S(=O)(=O)C(C)C)n1" ? 50 to 500 nM

* * *

Each item that follows carries a reported IC50.
biological target: various mutants of kinase EGFR (BaF3 cell lines stably transfected with kinase) (Homo sapiens, UniProt P00533, L858R); construct: expressed in transfected cells; host or cells: BaF3; assay: Growth inhibitory activity of compounds on BaF3 cell lines stably transfected with kinase (MTS, 48 h); format: cell-based; conditions: BaF3 cells stably transfected with EGFR L858R, read-out: IC50, growth inhibition, L858R
Sequence (P00533 25-1210 L858R): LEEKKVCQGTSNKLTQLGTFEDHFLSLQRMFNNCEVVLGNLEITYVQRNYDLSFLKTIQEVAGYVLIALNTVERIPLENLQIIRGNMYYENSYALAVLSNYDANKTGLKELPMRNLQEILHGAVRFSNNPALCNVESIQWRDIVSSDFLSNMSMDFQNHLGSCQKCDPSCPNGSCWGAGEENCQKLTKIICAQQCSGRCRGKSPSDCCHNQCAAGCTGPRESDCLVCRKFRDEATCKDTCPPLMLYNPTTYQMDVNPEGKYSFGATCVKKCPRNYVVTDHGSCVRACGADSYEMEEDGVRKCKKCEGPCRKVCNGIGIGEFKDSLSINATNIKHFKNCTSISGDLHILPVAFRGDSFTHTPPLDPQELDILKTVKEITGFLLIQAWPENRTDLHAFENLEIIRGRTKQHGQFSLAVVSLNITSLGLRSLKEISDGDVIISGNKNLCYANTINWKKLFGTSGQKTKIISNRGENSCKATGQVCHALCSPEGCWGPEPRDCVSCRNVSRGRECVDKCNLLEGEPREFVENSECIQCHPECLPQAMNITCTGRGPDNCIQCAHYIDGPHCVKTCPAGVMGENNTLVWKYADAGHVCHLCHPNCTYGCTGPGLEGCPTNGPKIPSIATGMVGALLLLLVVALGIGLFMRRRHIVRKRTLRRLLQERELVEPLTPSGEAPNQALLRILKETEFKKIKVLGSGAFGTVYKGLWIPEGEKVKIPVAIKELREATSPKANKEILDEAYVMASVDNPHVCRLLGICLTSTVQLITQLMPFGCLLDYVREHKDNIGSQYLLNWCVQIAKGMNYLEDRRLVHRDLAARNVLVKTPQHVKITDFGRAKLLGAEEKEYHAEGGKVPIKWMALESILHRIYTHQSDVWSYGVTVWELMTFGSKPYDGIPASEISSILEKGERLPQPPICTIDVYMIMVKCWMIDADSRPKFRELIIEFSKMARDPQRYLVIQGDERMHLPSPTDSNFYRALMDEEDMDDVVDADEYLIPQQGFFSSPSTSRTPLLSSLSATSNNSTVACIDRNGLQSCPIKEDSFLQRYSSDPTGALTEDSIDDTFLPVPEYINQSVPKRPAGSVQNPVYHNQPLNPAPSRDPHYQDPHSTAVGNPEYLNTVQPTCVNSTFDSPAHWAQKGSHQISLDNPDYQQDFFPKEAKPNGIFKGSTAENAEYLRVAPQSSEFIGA

- CCc1cc(Nc2ncc(Br)c(Nc3ccc4nccnc4c3N(C)S(=O)(=O)C(F)(F)F)n2)c(OC)cc1N1CCC(N(C)C)C1 (stereo not drawn): 500 to 2500 nM
- CN1CCN(S(=O)(=O)c2ccc(Nc3ncc(Br)c(Nc4ccc5nccnc5c4N(C)S(C)(=O)=O)n3)cc2)CC1: 50 to 500 nM
- COc1cc(N2CCC(N3CCN(C)CC3)CC2)c(C(C)C)cc1Nc1ncc(Br)c(Nc2ccc3nccnc3c2N(C)S(C)(=O)=O)n1: 500 to 2500 nM

If you can, please state the reported IC50 value of "COc1cc(N2CCC(N3CCN(C)CC3)CC2)c(C)cc1Nc1ncc(C(F)(F)F)c(Nc2ccc3nccnc3c2N(C)S(C)(=O)=O)n1" . ≤ 50 nM

Another compound to check: "CCN(c1c(Nc2nc(Nc3cc(C)c(N4CCC(N5CCN(C)CC5)CC4)nc3OC)ncc2Br)ccc2nccnc12)S(C)(=O)=O" 50 to 500 nM

// repeat for "COc1cc(N2CCC(N3CCN(C)CC3)CC2)ccc1Nc1ncc(F)c(Nc2ccc3nccnc3c2N(C)S(C)(=O)=O)n1" and report 50 to 500 nM

* * *

Form field: IC50 (one value per entry).
target: various mutants of kinase EGFR (BaF3 cell lines stably transfected with kinase) (Homo sapiens, UniProt P00533, C797S/L858R/T790M); construct: expressed in transfected cells; host or cells: BaF3; test: Growth inhibitory activity of compounds on BaF3 cell lines stably transfected with kinase (MTS, 48 h); type: cell-based; settings: BaF3 cell line stably transfected with EGFR L858R/T790M/C797S, read-out: L858R/T790M/ C797S growth inhibitory activity IC50
Sequence (P00533 25-1210 T790M/C797S/L858R): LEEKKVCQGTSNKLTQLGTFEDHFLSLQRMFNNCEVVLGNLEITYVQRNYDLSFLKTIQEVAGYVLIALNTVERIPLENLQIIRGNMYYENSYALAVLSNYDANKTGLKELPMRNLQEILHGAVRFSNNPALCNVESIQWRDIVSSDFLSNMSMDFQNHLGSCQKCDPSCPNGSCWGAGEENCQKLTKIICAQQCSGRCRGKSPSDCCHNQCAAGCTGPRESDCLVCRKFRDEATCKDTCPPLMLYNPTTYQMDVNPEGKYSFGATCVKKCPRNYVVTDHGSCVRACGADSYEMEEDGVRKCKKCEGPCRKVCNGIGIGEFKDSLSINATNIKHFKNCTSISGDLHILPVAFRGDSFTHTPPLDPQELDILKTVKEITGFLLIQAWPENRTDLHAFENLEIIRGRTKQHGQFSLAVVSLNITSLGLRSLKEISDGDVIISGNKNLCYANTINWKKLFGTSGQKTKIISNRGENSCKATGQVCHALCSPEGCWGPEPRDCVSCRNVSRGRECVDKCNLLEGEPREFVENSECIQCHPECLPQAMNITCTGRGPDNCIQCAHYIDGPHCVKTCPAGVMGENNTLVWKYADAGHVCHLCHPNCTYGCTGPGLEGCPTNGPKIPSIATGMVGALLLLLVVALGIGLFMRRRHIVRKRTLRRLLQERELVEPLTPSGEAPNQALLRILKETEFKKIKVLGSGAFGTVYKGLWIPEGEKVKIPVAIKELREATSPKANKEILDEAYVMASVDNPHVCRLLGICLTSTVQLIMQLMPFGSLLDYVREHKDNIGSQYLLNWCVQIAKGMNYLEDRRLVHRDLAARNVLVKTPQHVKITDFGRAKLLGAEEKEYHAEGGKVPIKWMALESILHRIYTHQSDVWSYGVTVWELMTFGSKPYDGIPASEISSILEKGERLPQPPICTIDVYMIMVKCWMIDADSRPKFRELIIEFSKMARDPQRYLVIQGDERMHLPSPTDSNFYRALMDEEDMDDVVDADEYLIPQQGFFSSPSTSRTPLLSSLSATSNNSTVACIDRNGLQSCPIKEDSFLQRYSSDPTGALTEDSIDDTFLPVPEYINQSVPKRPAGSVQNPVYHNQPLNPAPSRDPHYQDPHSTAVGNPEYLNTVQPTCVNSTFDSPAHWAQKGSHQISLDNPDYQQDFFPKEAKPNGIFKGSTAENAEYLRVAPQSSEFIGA

Please review the entries below; each comes with its answer.
• COc1cc(N2CCC(N3CCN(C)CC3)CC2)ccc1Nc1nc(Nc2ccc3nccnc3c2N(C)S(C)(=O)=O)c2cc[nH]c2n1 = 50 to 500 nM
• COc1cc(N2CCC(N3CCN(C)CC3)CC2)ccc1Nc1ncc(Br)c(Nc2ccc3nccnc3c2NS(=O)(=O)C(C)C)n1 = 50 to 500 nM
• CCc1cc(Nc2ncc(Br)c(Nc3ccc4nccnc4c3N(C)S(C)(=O)=O)n2)c(OC)cc1N1CCC(N2CCN(C)CC2)CC1 = ≤ 50 nM

Please look up its IC50: "CCOc1cnc(Nc2cc(CC)c(N3CCC(N4CCN(C)CC4)CC3)cc2OC)nc1Nc1ccc2nccnc2c1N(C)S(C)(=O)=O" 50 to 500 nM

Here is the next compound: "COc1cc(N2CCC(N3CCN(C)CC3)CC2)c(C(C)C)cc1Nc1ncc(C#N)c(Nc2ccc3nccnc3c2N(C)S(C)(=O)=O)n1" 50 to 500 nM

Moving on to the next compound: "COc1cc(N2CCC(N3CCN(C)CC3)CC2)c(C(C)C)cc1Nc1ncc(Br)c(Nc2ccc3nccnc3c2NS(C)(=O)=O)n1" 50 to 500 nM

Can you handle "CCc1cc(Nc2nccc(Nc3ccc4nccnc4c3N(C)S(C)(=O)=O)n2)c(OC)cc1N1CCC(N2CCN(C)CC2)CC1" next? ≤ 50 nM

How about this compound: "C=Cc1cc(Nc2ncc(Cl)c(Nc3ccc4nccnc4c3N(C3CC3)S(C)(=O)=O)n2)c(OC(F)(F)F)cc1N1CCC(N2CCN(C)CC2)CC1" 50 to 500 nM

Same question for "C=Cc1cc(Nc2nc(Nc3ccc4nccnc4c3N(C)S(C)(=O)=O)c3sccc3n2)c(OC(F)(F)F)cc1N1CCC(N2CCN(C)CC2)CC1" please. 50 to 500 nM

"CCc1cnc(Nc2cc(CC)c(N3CCC(N4CCN(C)CC4)CC3)nc2OC)nc1Nc1ccc2nccnc2c1N(C)S(C)(=O)=O" , same question. ≤ 50 nM

Moving on to the next compound: "COc1cc(N2CCC(N3CCN(C)CC3)CC2)c(C)cc1Nc1ncc(Br)c(Nc2ccc3nccnc3c2NS(C)(=O)=O)n1" ≤ 50 nM

Can you handle "CN1CCN(C2CCN(c3c(F)cc(Nc4ncc(Cl)c(Nc5ccc6nccnc6c5N(C)S(C)(=O)=O)n4)cc3F)CC2)CC1" next? ≤ 50 nM

And the next one, "CCc1cc(Nc2ncc(Cl)c(Nc3ccc4nccnc4c3N(C)S(C)(=O)=O)n2)c(OC)cc1C(=O)N1CCC(N2CCN(C)CC2)CC1" ? 50 to 500 nM

Same question for "CCn1cc(Nc2ncc(Br)c(Nc3ccc4nccnc4c3N(C)S(C)(=O)=O)n2)cn1" please. 50 to 500 nM

Do the same for "CCc1cc(Nc2nc(Nc3ccc4nccnc4c3N(C)S(C)(=O)=O)c3[nH]ccc3n2)c(OC)nc1N1CCC(N2CCN(C)CC2)CC1" please 50 to 500 nM

Next compound up: "COc1cc(N2CCC(N3CCN(C)CC3)CC2)ccc1Nc1nc(Nc2ccc3nccnc3c2N(C)S(C)(=O)=O)c2occc2n1" 500 to 2500 nM

// same read-out, input: "CCc1cc(Nc2ncc(CC)c(Nc3ccc4nccnc4c3N(C)S(C)(=O)=O)n2)c(OC)cc1C(=O)N1CCC(N2CCN(C)CC2)CC1" 50 to 500 nM

Field entry: "CCc1cc(Nc2ncc(Br)c(Nc3ccc4nccnc4c3N(C)S(C)(=O)=O)n2)c(OC)cc1N1CCN(C2CN(C)C2)CC1" ≤ 50 nM

And for "CCc1cc(Nc2ncc(C)c(Nc3ccc4nccnc4c3N(C)S(C)(=O)=O)n2)c(OC)cc1N1CCN(C)CC1" ? ≤ 50 nM

Cool, now "COc1nc(N2CCC(N3CCN(C)CC3)CC2)ccc1Nc1nc(Nc2ccc3nccnc3c2N(C)S(C)(=O)=O)c2[nH]ccc2n1" 500 to 2500 nM

Continue with "COc1ccc(N2CCC(C#N)CC2)cc1Nc1ncc(Br)c(Nc2ccc3nccnc3c2N(C)S(C)(=O)=O)n1" 50 to 500 nM

And "C=Cc1cc(Nc2nc(Nc3ccc4nccnc4c3N(C)S(C)(=O)=O)c3[nH]ccc3n2)c(OC(F)(F)F)cc1N1CCC(N2CCN(C)CC2)CC1" ? 50 to 500 nM

Further, for "CCc1cc(Nc2ncc(CC)c(Nc3ccc4nccnc4c3N(C)S(C)(=O)=O)n2)c(OC)cc1N1CCC(N2CCN(C)CC2)CC1" ? ≤ 50 nM

Same again, this time with "CCc1cc(Nc2nc(Nc3ccc4nccnc4c3N(C)S(C)(=O)=O)c3sccc3n2)c(OC)cc1N1CCC(N2CCN(C)CC2)CC1" ≤ 50 nM

And what about the compound "CCc1cc(Nc2nccc(Nc3ccc4nccnc4c3N(C)S(C)(=O)=O)n2)ccc1N1CCC(N2CCN(C)CC2)CC1" ? ≤ 50 nM

Similarly, "CCc1cc(Nc2ncc(Br)c(Nc3ccc4nccnc4c3NS(=O)(=O)C(C)C)n2)c(OC)cc1N1CCC(N2CCN(C)CC2)CC1" ? ≤ 50 nM
